IC50 listing for selected compounds.
- Measured target: full length, heterotrimeric human RPA (fl-RPA) (Homo sapiens (Human), UniProt P27694)
- Sequence (P27694 whole entry): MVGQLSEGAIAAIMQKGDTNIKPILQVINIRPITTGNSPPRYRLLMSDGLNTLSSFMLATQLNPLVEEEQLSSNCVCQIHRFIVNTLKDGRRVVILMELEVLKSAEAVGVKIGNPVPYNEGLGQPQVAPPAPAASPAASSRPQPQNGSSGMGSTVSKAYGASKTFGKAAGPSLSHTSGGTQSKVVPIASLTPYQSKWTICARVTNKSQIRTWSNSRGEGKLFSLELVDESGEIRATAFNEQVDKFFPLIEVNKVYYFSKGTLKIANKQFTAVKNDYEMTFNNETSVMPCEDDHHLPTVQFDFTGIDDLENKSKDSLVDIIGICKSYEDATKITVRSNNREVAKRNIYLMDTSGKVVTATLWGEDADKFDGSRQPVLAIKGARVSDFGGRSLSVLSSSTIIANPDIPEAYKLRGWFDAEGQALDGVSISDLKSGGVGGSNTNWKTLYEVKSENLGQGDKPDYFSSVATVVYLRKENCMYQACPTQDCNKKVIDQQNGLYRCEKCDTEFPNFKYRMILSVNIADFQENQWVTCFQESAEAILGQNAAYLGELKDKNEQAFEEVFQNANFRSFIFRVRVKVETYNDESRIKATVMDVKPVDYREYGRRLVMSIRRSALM
- Sequence (P15927 whole entry partner): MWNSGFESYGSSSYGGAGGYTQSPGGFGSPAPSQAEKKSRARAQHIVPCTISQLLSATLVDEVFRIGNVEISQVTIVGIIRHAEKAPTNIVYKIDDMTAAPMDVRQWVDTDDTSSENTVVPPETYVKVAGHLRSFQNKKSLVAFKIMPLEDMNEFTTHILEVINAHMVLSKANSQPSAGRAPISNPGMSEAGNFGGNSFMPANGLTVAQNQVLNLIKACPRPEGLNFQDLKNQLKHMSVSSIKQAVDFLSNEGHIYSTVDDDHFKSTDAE
- Sequence (P35244 whole entry partner): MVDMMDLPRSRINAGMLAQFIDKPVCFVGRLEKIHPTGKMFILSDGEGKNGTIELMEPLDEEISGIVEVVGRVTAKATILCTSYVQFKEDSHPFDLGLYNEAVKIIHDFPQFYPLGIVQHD
- Experimental details: EMSA for inhibition of RPA-DNA binding activity (full length RPA)
- Recorded conditions: compounds titrated at 1-125 μM; read-out: IC50 calculated from EMSA reactions
- Description: Referring to protein purification, full length, heterotrimeric human RPA (fl-RPA) was expressed in E. coli and purified by a three column procedure as previously described (See Patrick S M and Turchi J, Replication Protein A (RPA) Binding to Duplex Cisplatin-damaged DNA Is Mediated through the Generation of Single-stranded DNA. J Biol Chem 1999; 274:14972-8). The DBD-A/B construct was expressed as a SUMO-His6-RPA^181-432 fusion protein. […]

| Compound | IC50 |
| --- | --- |
| CCOc1ccc2cc(C3CC(c4ccc(Br)cc4)=NN3C(=O)CCCC(=O)O)c(Cl)nc2c1 (stereo not drawn) | 25 µM |

input: If you can, please state the reported IC50 value of COc1ccc(C2CC(c3ccccc3)=NN2C(=O)CCCC(=O)O)cc1OC (stereo not drawn) .
output: > 100 µM

input: And the next one, COc1ccc2cc(C3CC(c4ccc(Cl)cc4)=NN3C(=O)CCCC(=O)O)c(Cl)nc2c1 (stereo not drawn) ?
output: 60 µM

input: And the next one, COc1ccc2cc(C3CC(c4ccc(C)cc4)=NN3C(=O)CCCC(=O)O)c(Cl)nc2c1 (stereo not drawn) ?
output: > 100 µM

input: And the next one, COc1ccc(C2=NN(C(=O)CCC(=O)O)C(c3cc4ccc(OC)cc4nc3Cl)C2)cc1 (stereo not drawn) ?
output: > 100 µM

input: And the next one, COc1ccc2cc(C3CC(c4ccc(Cl)cc4)=NN3C(=O)CCC(=O)O)c(Cl)nc2c1 (stereo not drawn) ?
output: 75 µM

input: And the next one, O=C(O)CCCC(=O)N1N=C(c2ccccc2)CC1c1cc2cc3c(cc2nc1Cl)OCCO3 (stereo not drawn) ?
output: > 100 µM

input: And the next one, COc1ccc(C2=NN(C(=O)CCCC(=O)O)C(c3ccccc3OC)C2)cc1 (stereo not drawn) ?
output: > 100 µM

input: And the next one, COc1ccc2cc(C3CC(c4ccc(OC)c(OC)c4)=NN3C(=O)CCC(=O)O)c(Cl)nc2c1 (stereo not drawn) ?
output: > 100 µM

---

- Measured target: full length, heterotrimeric human RPA (fl-RPA) (Homo sapiens (Human), UniProt P27694)
- Experimental details: EMSA for inhibition of RPA-DNA binding activity (full length RPA)
- Recorded conditions: EMSA, RPA incubated with compounds at 1-125 μM; read-out: In vitro IC50
Recorded endpoint: IC50 (µM)

[A] CCOc1ccc2cc(C3CC(c4ccc(Br)cc4)=NN3C(=O)CCCCC(=O)O)c(Cl)nc2c1 (centres unmarked)
[B] CCOc1ccc2cc(C3CC(c4cccc(I)c4)=NN3C(=O)CCCCC(=O)O)c(Cl)nc2c1 (centres unmarked)
[C] CC(C)Oc1ccc2cc(C3CC(c4ccc(Br)cc4)=NN3C(=O)CCCCC(=O)O)c(Cl)nc2c1 (centres unmarked)
input: Please give the order of these compounds when sorted by IC50, largest value leading. I'd appreciate it if you listed the labels in the requested order.
output: C, A, B
(C: 43 µM, A: 25 µM, B: 15 µM)
